Molecular target: α-glucosidase (EC 3.2.1.20) (Saccharomyces cerevisiae, UniProt P53341)
Sequence (P53341 whole entry): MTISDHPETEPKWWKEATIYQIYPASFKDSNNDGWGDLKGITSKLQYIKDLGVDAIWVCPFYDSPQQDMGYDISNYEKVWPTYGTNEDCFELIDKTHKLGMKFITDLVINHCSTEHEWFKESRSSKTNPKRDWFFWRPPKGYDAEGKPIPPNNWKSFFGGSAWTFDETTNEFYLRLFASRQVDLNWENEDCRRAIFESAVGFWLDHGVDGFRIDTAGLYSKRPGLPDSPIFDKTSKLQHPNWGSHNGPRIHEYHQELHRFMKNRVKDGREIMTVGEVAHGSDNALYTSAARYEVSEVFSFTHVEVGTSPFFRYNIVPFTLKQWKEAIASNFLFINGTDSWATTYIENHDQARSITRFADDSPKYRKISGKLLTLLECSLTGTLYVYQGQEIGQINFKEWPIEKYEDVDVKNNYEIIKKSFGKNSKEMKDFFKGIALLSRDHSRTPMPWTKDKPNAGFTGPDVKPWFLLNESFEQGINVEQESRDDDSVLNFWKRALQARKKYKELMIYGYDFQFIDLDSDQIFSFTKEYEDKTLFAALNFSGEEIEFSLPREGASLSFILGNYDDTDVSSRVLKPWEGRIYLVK
Assay: biochemical
Format: biochemical
Metric Name: IC50 (µM)

O=C(C=Cc1ccccc1)c1ccccc1OCCCCCN1CC(O)C(O)C(O)C1CO (stereo not drawn) | 30
CCOC(=O)/C=C/c1ccc(OCCN2CC(O)C(O)C(O)C2CO)c(OC)c1 (stereo not drawn) | 966
COC(=O)C=Cc1ccc(OCCCCCCN2CC(O)C(O)C(O)C2CO)cc1 (stereo not drawn) | 417
